Data credit: the RepoRT retention time repository (doi:10.1021/acs.analchem.2c02893)

assay: RP, Thermo Scientific Acclaim RSLC 120 C18, 100 × 2.1 mm, 2.2 µm, 30 °C, 0.2 mL/min, estimated dead time 1.1 min; A: 90% water + 10% methanol + 0.01% formic acid + 5 mM ammonium formate, pH 3.61; B: methanol + 0.01% formic acid + 5 mM ammonium formate, pH 3.61; gradient (min/%B) 0/1 1/1 2/39 13/99.9 15/99.9 15.1/1 20.1/1; conditions: stereoisomer not certain
ENDPOINT NAME: LC retention time (min)
Report only the number, with the unit min understood.

Answered examples (3):
- COMPOUND: "Cn1c(=O)c2c(ncn2CCO)n(C)c1=O [Etofylline]"
  UNIT ABBREVIATION: "min"
  LC retention time: 4.09
- COMPOUND: "CNCC(C)CN1c2ccccc2CCc2ccccc21 (centres undefined) [Trimipramine-Nor]"
  UNIT ABBREVIATION: "min"
  LC retention time: 8.49
- COMPOUND: "CC(C)N(Cc1ccccc1)C(=O)C(C)(C)C [Tebutame]"
  UNIT ABBREVIATION: "min"
  LC retention time: 10.2

Now take the following compound into account.
[Q] Value lookup for LC retention time; key = CCCCOC(=O)c1ccccc1C(=O)OCCCC [Phthalate-Di-n-butyl]
[A] 12

###

Form field: LC retention time (one value per entry).
assay: RP, Thermo Scientific Acclaim RSLC 120 C18, 100 × 2.1 mm, 2.2 µm, 30 °C, 0.2 mL/min, estimated dead time 1.1 min; A: 90% water + 10% methanol + 0.01% formic acid + 5 mM ammonium formate, pH 3.61; B: methanol + 0.01% formic acid + 5 mM ammonium formate, pH 3.61; gradient (min/%B) 0/1 1/1 2/39 13/99.9 15/99.9 15.1/1 20.1/1; conditions: stereoisomer not certain
Report only the number, with the unit min understood.

Answered examples (2):
- COMPOUND: "CC(C)N(CCc1c[nH]c2ccccc12)C(C)C [DiPT]"
  UNIT ABBREVIATION: "min"
  NUMBER: 4.87
- COMPOUND: "CN1C(=O)CC(=O)N(c2ccccc2)c2cc(Cl)ccc21 [Clobazam]"
  UNIT ABBREVIATION: "min"
  NUMBER: 8.08

Now take the following compound into account.
[Q] Value lookup for LC retention time; key = OC(Cn1cncn1)(Cn1cncn1)c1ccc(F)cc1F [Fluconazole]
[A] 5.06

###

test: RP, Thermo Scientific Acclaim RSLC 120 C18, 100 × 2.1 mm, 2.2 µm, 30 °C, 0.2 mL/min, estimated dead time 1.1 min; A: 90% water + 10% methanol + 0.01% formic acid + 5 mM ammonium formate, pH 3.61; B: methanol + 0.01% formic acid + 5 mM ammonium formate, pH 3.61; gradient (min/%B) 0/1 1/1 2/39 13/99.9 15/99.9 15.1/1 20.1/1; details: stereoisomer not certain
ENDPOINT NAME: LC retention time (min)
Report only the number, with the unit min understood.

Answered examples (5):
- MOLECULE: "CCCCCCCn1cc(C(=O)c2cccc3ccccc23)c2ccccc21"
  ENDPOINT NAME: "LC retention time"
  NUMBER: 13.4
- MOLECULE: "COP(=S)(OC)Oc1ccc(S(N)(=O)=O)cc1 [Cythioate]"
  ENDPOINT NAME: "LC retention time"
  NUMBER: 6.19
- MOLECULE: "NC(CC(=O)N1CCn2c(nnc2C(F)(F)F)C1)Cc1cc(F)c(F)cc1F (stereo unspecified)"
  ENDPOINT NAME: "LC retention time"
  NUMBER: 5.08
- MOLECULE: "CC(=O)Nc1c(C)n(C)n(-c2ccccc2)c1=O [Antipyrine- 4-Acetamido]"
  ENDPOINT NAME: "LC retention time"
  NUMBER: 3.94
- MOLECULE: "CC(N)Cc1ccc2occc2c1 (stereo unspecified)"
  ENDPOINT NAME: "LC retention time"
  NUMBER: 4.79

Now take the following molecule into account.
[Q] Value lookup for LC retention time; key = NC1Cc2cc3c(cc2C1)OCO3
[A] 3.81
